// provenance: PubChem BioAssay (NCI)

- ASSAY_NOTES: NCI Yeast Anticancer Drug Screen. Data for the mlh1 rad18 strain (AID 175)
- ASSAY_CONTEXT: S. cerevisiae mlh1 rad18 strain growth inhibition; at 50.0 µM; active compounds read high
Compounds without any hit were thinned out: in the full panel of roughly 79,000, 15% have a hit.
QUANTITY_KIND: growth inhibition (%)
Lab book: enter the figure in %, no units written.

GET /value?item= "Nc1ccc(N)c2c1C(=O)c1ccccc1C2=O" &field=growth inhibition returns 50.6

growth inhibition for "CCOc1ccc2c(c1)n([O-])c1ccccc1[n+]2=O" is 99.1

Record summary for "COc1ccc(/C(C#N)=C(/N)SCc2ccccc2Cl)cc1" : reported growth inhibition = 90

The value of growth inhibition measured for the compound "CCN(CC)c1ccc2nc3ccc(N(CC)CC)cc3[n+](-c3ccccc3)c2c1" turned out to be 98.7

Looking up CCOC(=O)C1CCN(Cc2ccccc2)CC1=O (stereo not drawn) , I see its growth inhibition listed as 90.8

Consider "N#CCCN(C(=S)Nc1ccc(Cl)c(Cl)c1)C1CCCCC1" . Its measured growth inhibition is 75.1

Kindly note the recorded growth inhibition for CC1C/C(=C\c2ccc(O)c(O)c2)C(=O)/C(=C/c2ccc(O)c(O)c2)C1 (stereo not drawn) , which is 21.6

response.value for "CC(C)(C)CC(C)(C)c1ccc(Oc2ccc([N+](=O)[O-])cc2S(=O)(=O)O)cc1" (field: growth inhibition) = 24.7

Lookup result for O=C1OC2(CCCC2)OC1c1ccccc1 (stereo not drawn) ; measured growth inhibition: -6.4

The compound listed as "COc1cccc(-c2cc(=O)c3c(C)ccnc3[nH]2)c1" has a reported growth inhibition of 61.8

What the record says about "C=CCc1cc([N+](=O)[O-])ccc1O" : growth inhibition is 90.8

The reported growth inhibition of the compound "C[n+]1c(-c2ccc(/C=N\NC(=O)c3cccc(C(=O)N/N=C/c4ccc(-c5cn6ccccc6[n+]5C)cc4)c3)cc2)cn2ccccc21" was 98.5

// growth inhibition lookup, compound = COc1cc2c(cc1OC)C(C)N(C)c1c-2c(OC(C)=O)cc2cc(OC)c(OC)cc12 (stereo not drawn) , result: 70.5

growth inhibition for "C=C1CC/C=C(/C(=O)O)CC[C@H]2[C@@H]1CC2(C)C" is 53.2

# growth inhibition of "COc1cc2c(c(OC)c1OC)-c1ccc(=O)c(OC)cc1[C@@H](N)CC2" = -49.5

Reported growth inhibition for "NCc1ccc(O)c(O)c1O" was 16.3

Measured growth inhibition of "CC(=O)/C=N/Nc1ccccc1" : 58.6

Recorded result, "O=C(Nc1ccc(-c2cn3ccccc3n2)cc1)c1cc(Br)ccc1O" , growth inhibition: -29.8

// field: growth inhibition; key: CN1CCCC(C(=O)OCC(=O)C2(O)CCC3C4CCC5=CC(=O)CCC5(C)C4C(O)CC32C)C1 (stereo not drawn) ; value = 42.9

Recorded result, "O=C1c2ccccc2C(=O)c2cc(S(=O)(=O)Cl)ccc21" , growth inhibition: 75.8

"Cc1cc(O)c(/C=N/c2nc(-c3cccc([N+](=O)[O-])c3)cs2)c(=O)o1" yielded growth inhibition of 63.6

The compound listed as Cc1ccc(C(OS(=O)(=O)c2ccc(C)cc2)C(F)(F)F)cc1 (stereo not drawn) shows growth inhibition equal to 66.2

growth inhibition reported for this compound "Cc1ccc(S(=O)(=O)NCCCSCCO)cc1" : 54.6
